Measured Plant response rating (0 to 100 scale), Lambsquarters of individual entries
Tested on: lambsquarters
Assay Protocol: Test B pre-/postemergence herbicide test
Assay type: in vivo, Chenopodium album
Condition Notes: 125 g ai/ha; 0 is no effect, 100 is complete control; preemergence
Kindly provide the number alone.

CCc1nn(C(C)(C)C)nc1C(=O)Nc1cc(C(=O)N(C)C)ccc1F : 80

Enquiry: For the compound CCC1=NN(C(C)(C)C)CC1C(=O)Nc1cc(C(=O)N(C)C)ccc1F (racemic) , what Plant response rating (0 to 100 scale), Lambsquarters is on record?
Return: 90

Enquiry: Requested read-out: Plant response rating (0 to 100 scale), Lambsquarters. Entry: "Cc1nn(C(C)C)nc1C(=O)Nc1cc(C(=O)N(C)C)ccc1F"
Return: 0

Enquiry: If you can, please state the reported Plant response rating (0 to 100 scale), Lambsquarters value of "CCNC(=O)c1ccc(F)c(NC(=O)c2nn(C(C)(C)CC)nc2CC)c1" .
Return: 80

Enquiry: Query: Plant response rating (0 to 100 scale), Lambsquarters; subject: "CCc1nn(C(C)(C)C)nc1C(=O)Nc1cccc(C(=O)N(C)CC)c1"
Return: 100
